tested_target: T1, octa-histidine tagged Pf41 D1D2 (residues 21-368) (Plasmodium falciparum, UniProt Q8I1Y0 21-368)
T1 construct: Pf41, Plasmodium falciparum 6-cysteine protein, residues K21-S368; TEV-cleavable tag left on; loaded on NTA sensors; also called tagged wildtype Pf41; source: Spodoptera frugiperda 21 cells, secreted into growth media, purified as tagged protein (Ni-IMAC, SEC); not shown: His8, N-terminal, kept
T1 sequence: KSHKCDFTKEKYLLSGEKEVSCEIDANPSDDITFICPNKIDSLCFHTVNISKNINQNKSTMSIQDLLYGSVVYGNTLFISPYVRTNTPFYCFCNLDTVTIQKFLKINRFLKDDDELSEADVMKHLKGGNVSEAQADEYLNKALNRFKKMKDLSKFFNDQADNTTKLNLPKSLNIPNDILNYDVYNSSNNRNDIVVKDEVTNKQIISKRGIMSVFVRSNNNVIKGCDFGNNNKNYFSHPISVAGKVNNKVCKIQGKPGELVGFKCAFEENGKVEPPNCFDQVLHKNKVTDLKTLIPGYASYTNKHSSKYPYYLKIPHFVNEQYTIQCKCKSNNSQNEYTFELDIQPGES
protocol_notes: BLI; Octet RED96e; octa-histidine tagged Pf41 loaded on NTA sensors; untagged Pf12 wildtype, mutant or single domain 31-1000 nM; PBS pH 7.4, 0.1% BSA, 0.05% TWEEN-20, 25°C; read-out relative maximum response against wildtype
run_parameters: both partners purified

[
  {
    "binder": "Pf12 D1D2 (residues 28-304), untagged (domain or fragment, Plasmodium falciparum, UniProt C6KSX0 28-304, looked up, Pf12, Plasmodium falciparum 6-cysteine protein, residues N28-S304 (domains D1 and D2); lacks the signal peptide and the GPI-anchor site; After TEV cleavage three residues, GAS, remain at the N-terminus as cloning artefacts; N-glycosylation sites kept; treated with PNGase F before crystallisation; also called Pf12 wildtype; source: Spodoptera frugiperda 21 cells, secreted into growth media, …) NLTCDFNDVYKLEFHPNQQTSVTKLCNLTPNVLEKVTIKCGSDKLNYNLYPPTCFEEVYASRNMMHLKKIKEFVIGSSMFMRRSLTPNKINEVSFRIPPNMMPEKPIYCFCENKKTITINGSNGNPSSKKDIINRGIVEIIIPSLNEKVKGCDFTTSESTIFSKGYSINEISNKSSNNQQDIVCTVKAHANDLIGFKCPSNYSVEPHDCFVSAFNLSGKNENLENKLKLTNIIMDHYNNTFYSRLPSLISDNWKFFCVCSKDNEKKLVFTVEASISS",
    "binding result": "binds"
  },
  {
    "binder": "Pf12 D1D2 H234A (domain or fragment, Pf12, Plasmodium falciparum, residues N28-S304 (D1D2); source: Spodoptera frugiperda 21 cells, purified (Ni-IMAC, TEV cleavage, SEC); not shown: His8, N-terminal, cleaved) NLTCDFNDVYKLEFHPNQQTSVTKLCNLTPNVLEKVTIKCGSDKLNYNLYPPTCFEEVYASRNMMHLKKIKEFVIGSSMFMRRSLTPNKINEVSFRIPPNMMPEKPIYCFCENKKTITINGSNGNPSSKKDIINRGIVEIIIPSLNEKVKGCDFTTSESTIFSKGYSINEISNKSSNNQQDIVCTVKAHANDLIGFKCPSNYSVEPADCFVSAFNLSGKNENLENKLKLTNIIMDHYNNTFYSRLPSLISDNWKFFCVCSKDNEKKLVFTVEASISS",
    "binding result": "binds"
  },
  {
    "binder": "Pf12 D1D2 R110A (domain or fragment, Pf12, Plasmodium falciparum, residues N28-S304 (D1D2); source: Spodoptera frugiperda 21 cells, purified (Ni-IMAC, TEV cleavage, SEC); not shown: His8, N-terminal, cleaved) NLTCDFNDVYKLEFHPNQQTSVTKLCNLTPNVLEKVTIKCGSDKLNYNLYPPTCFEEVYASRNMMHLKKIKEFVIGSSMFMRASLTPNKINEVSFRIPPNMMPEKPIYCFCENKKTITINGSNGNPSSKKDIINRGIVEIIIPSLNEKVKGCDFTTSESTIFSKGYSINEISNKSSNNQQDIVCTVKAHANDLIGFKCPSNYSVEPHDCFVSAFNLSGKNENLENKLKLTNIIMDHYNNTFYSRLPSLISDNWKFFCVCSKDNEKKLVFTVEASISS",
    "binding result": "binds"
  }
]

Data provenance is paper PMC8930183.
